Tested on: HEK-293T
Run Description: Multiplex assay against HEK293T
Type: toxicity, cell-based
Measurement Context: human, 48 h, 10 µM, compound concentration 10 uM, replicate 1
We begin with a simple list: items and their reported Population Tubulin-Different-Phenotype (%).
Dear colleague, please return just the value in %, with no unit written.

See these solved cases before continuing.
Compound: CC(C)(C)c1ccc(S(=O)(=O)Nc2ccc(Cl)cc2C(=O)c2cc[n+]([O-])cc2)cc1
Test System: HEK-293T
Reported: 14
//
Compound: CC[C@H]1OC(=O)[C@H](C)[C@@H](O[C@H]2C[C@@](C)(OC)[C@@H](O)[C@H](C)O2)[C@H](C)[C@@H](O[C@@H]2O[C@H](C)C[C@H](N(C)C)[C@H]2O)[C@@]2(C)CC(C)=C(O2)[C@H](C)[C@@H](O)[C@]1(C)O
Test System: HEK-293T
Reported: 56
//
Compound: Cc1ccc(C(C)(O)c2nc3ccccc3s2)c(C)c1 (stereo unspecified)
Test System: HEK-293T
Reported: 18
//
Compound: COc1cc(NC(=O)CCN2CCC(OC(=O)Nc3ccccc3-c3ccccc3)CC2)c(Cl)cc1CNC[C@H](O)c1ccc(O)c2[nH]c(=O)ccc12
Test System: HEK-293T
Reported: 66
//
Compound: CCCn1c(=O)c2[nH]c(C3CCCC3)nc2n(CCC)c1=O
Test System: HEK-293T
Reported: 30
//
Compound: CNC[C@H](O)c1ccc(O)c(O)c1 [EPINEPHRINE]
Test System: HEK-293T
Reported: 11
//
Compound: COc1ccc2c(c1)C(C(=O)N(Cc1ccc(N(C)C)cc1)c1ccc(C(C)C)cc1)CCC2.Cl (stereo unspecified)
Test System: HEK-293T
Reported: 53
//
Compound: C[C@H](NC(=O)c1c(C(F)F)nn(C)c1Oc1cccc(C(F)(F)F)c1)c1ccc(C(=O)O)cc1
Test System: HEK-293T
Reported: 16
//
Compound: Cc1ccc(-c2ccc(F)cc2COc2ccc(CCC(=O)O)cc2)cc1
Test System: HEK-293T
Reported: 9
//
Compound: COc1cc(C(=O)N(CCCc2ccccc2)Cc2ccc(CC(=O)O)cc2)cc(OC)c1C
Test System: HEK-293T
Reported: 29

Here is another compound to look at.
Dear colleague, please send me the reported Population Tubulin-Different-Phenotype (%) for CSCC[C@H](NC=O)C(=O)N[C@@H](CC(C)C)C(=O)N[C@@H](Cc1ccccc1)C(=O)O when you can.
12

---

System: U2OS
Run Description: Multiplex assay against U2OS
Type: toxicity, cell-based
Measurement Context: human, 24 h, 1 µM, compound concentration 1 uM, replicate 1
We begin with a simple list: items and their reported Population Healthy Nuclei (%).
Dear colleague, please return just the value in %, with no unit written.

See these solved cases before continuing.
Smiles Data: O=C(O)c1cc2ccccc2c(Cc2c(O)c(C(=O)O)cc3ccccc23)c1O
Quantity Unit: %
Population Healthy Nuclei (%): 72
//
Smiles Data: CN1CCN(c2nc3cc(C(F)(F)F)ccc3n3cccc23)CC1.O=C(O)/C=C\C(=O)O.O=C(O)/C=C\C(=O)O
Quantity Unit: %
Population Healthy Nuclei (%): 73
//
Smiles Data: N#Cc1c(N)nc(SCc2csc(-c3ccc(Cl)cc3)n2)c(C#N)c1-c1ccc(OCCO)cc1
Quantity Unit: %
Population Healthy Nuclei (%): 64
//
Smiles Data: Cc1ccc(-c2ccc(F)cc2COc2ccc(CCC(=O)O)cc2)cc1
Quantity Unit: %
Population Healthy Nuclei (%): 69
//
Smiles Data: CCOc1c2c(c(OCC)c3ncccc13)CN(c1ccc(CS(=O)(=O)NC(=O)Cc3ccccc3OC)cc1C)C2=O
Quantity Unit: %
Population Healthy Nuclei (%): 71

Dear colleague, please send me the reported Population Healthy Nuclei (%) for CC1(COc2ccc3c(c2)ncn3-c2ccc3cccc(N4CCC(N)CC4)c3n2)COC1 when you can.
45
